Molecular target: T1, TNFR1 (Homo sapiens, UniProt P19438)
T1 chain: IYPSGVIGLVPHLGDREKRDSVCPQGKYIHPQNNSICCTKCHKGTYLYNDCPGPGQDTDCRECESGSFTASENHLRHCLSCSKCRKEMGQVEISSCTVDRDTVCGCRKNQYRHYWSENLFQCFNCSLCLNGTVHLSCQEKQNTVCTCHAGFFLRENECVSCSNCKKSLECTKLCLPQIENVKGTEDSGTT
Test: yeast display SC50
Result type: apparent Kd (screen) (nM)

Answered cases to consult:
L76V (designed binder) SMEEEVEKAAKEYEKKKKEAIEKHLEKLKAKDKEAAERFLKELEEAAKEYAKDEAKTMSEEEAKRRAKKYKEKVLVSELSEEEQKEIKEAEEKLVRTILKYVEEAAK ... 1.4
E37H (designed binder) SMEEEVEKAAKEYEKKKKEAIEKHLEKLKAKDKEAAHRFLKELEEAAKEYAKDEAKTMSEEEAKRRAKKYKEKVLLSELSEEEQKEIKEAEEKLVRTILKYVEEAAK ... 0.446

a = S59F (designed binder) SMEEEVEKAAKEYEKKKKEAIEKHLEKLKAKDKEAAERFLKELEEAAKEYAKDEAKTMFEEEAKRRAKKYKEKVLLSELSEEEQKEIKEAEEKLVRTILKYVEEAAK
b = L75Q (designed binder) SMEEEVEKAAKEYEKKKKEAIEKHLEKLKAKDKEAAERFLKELEEAAKEYAKDEAKTMSEEEAKRRAKKYKEKVQLSELSEEEQKEIKEAEEKLVRTILKYVEEAAK
Task for the reader: decide whether a or b has the larger apparent Kd (screen). Respond with the label that goes with your answer. a
